Reported binding (% of control) values for a set of molecules
- Tested on: anti-desmoglein-3 scFv antibody binding to human DSG3
- ASSAY_INFO: inhibitors of anti-DSG3 scFv binding to DSG3, pilot screen, biochemical, validation compound set, bead-based, flow cytometry (AID 588368);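 also: signal is the median channel fluorescence of bead-bound GFP antibody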
- CONDITIONS: Protein G beads, DSG3-Fc, scFv-GFP binding, at 10 µM, active compounds read low

[
  {
    "MOLECULE": "COc1ccc2nc(Nc3nc(CSc4ccc(C)cc4)cc(=O)[nH]3)nc(C)c2c1",
    "ASSAY_SYSTEM": "anti-desmoglein-3 scFv antibody binding to human DSG3",
    "UNIT_TAG": "%",
    "binding (% of control)": 103
  },
  {
    "MOLECULE": "CCN1CCN(C(=O)N[C@@H](C(=O)N[C@@H]2C(=O)N3[C@@H]2SC(C)(C)[C@@H]3C(=O)O)c2ccccc2)C(=O)C1=O",
    "ASSAY_SYSTEM": "anti-desmoglein-3 scFv antibody binding to human DSG3",
    "UNIT_TAG": "%",
    "binding (% of control)": 103
  },
  {
    "MOLECULE": "C=CCc1cc(Cl)ccc1OCCOCCN(C)C",
    "ASSAY_SYSTEM": "anti-desmoglein-3 scFv antibody binding to human DSG3",
    "UNIT_TAG": "%",
    "binding (% of control)": 102
  },
  {
    "MOLECULE": "COc1cccc2c1C(=O)O/C2=C/c1ccc2c(c1)OCO2",
    "ASSAY_SYSTEM": "anti-desmoglein-3 scFv antibody binding to human DSG3",
    "UNIT_TAG": "%",
    "binding (% of control)": 99.8
  },
  {
    "MOLECULE": "Cc1cc(C(C)(C)C)c(O)c(C)c1CC1=NCCN1",
    "ASSAY_SYSTEM": "anti-desmoglein-3 scFv antibody binding to human DSG3",
    "UNIT_TAG": "%",
    "binding (% of control)": 106
  },
  {
    "MOLECULE": "CN(C)c1ccc(O)c2c1CC1CC3[C@@H](N(C)C)C(=O)C(C(N)=O)=C(O)[C@]3(O)C(=O)C1=C2O (some centres undefined)",
    "ASSAY_SYSTEM": "anti-desmoglein-3 scFv antibody binding to human DSG3",
    "UNIT_TAG": "%",
    "binding (% of control)": 93.6
  },
  {
    "MOLECULE": "Clc1ccc(OCCCN2CCCCC2)c(Br)c1",
    "ASSAY_SYSTEM": "anti-desmoglein-3 scFv antibody binding to human DSG3",
    "UNIT_TAG": "%",
    "binding (% of control)": 103
  },
  {
    "MOLECULE": "O=c1c2ccccc2nnn1Cc1cccc2ccccc12",
    "ASSAY_SYSTEM": "anti-desmoglein-3 scFv antibody binding to human DSG3",
    "UNIT_TAG": "%",
    "binding (% of control)": 99
  },
  {
    "MOLECULE": "CN1CCC(=C2c3ccccc3C=Cc3ccccc32)CC1",
    "ASSAY_SYSTEM": "anti-desmoglein-3 scFv antibody binding to human DSG3",
    "UNIT_TAG": "%",
    "binding (% of control)": 97.2
  },
  {
    "MOLECULE": "Cc1nc(C)c(C)nc1C",
    "ASSAY_SYSTEM": "anti-desmoglein-3 scFv antibody binding to human DSG3",
    "UNIT_TAG": "%",
    "binding (% of control)": 103
  },
  {
    "MOLECULE": "C=C(C)COc1ccc(-c2nc(N)ncc2-c2ccc(OC)cc2)c(O)c1",
    "ASSAY_SYSTEM": "anti-desmoglein-3 scFv antibody binding to human DSG3",
    "UNIT_TAG": "%",
    "binding (% of control)": 92
  },
  {
    "MOLECULE": "COc1ccc(C=NCC2COc3ccccc3O2)cc1OC (centres undefined)",
    "ASSAY_SYSTEM": "anti-desmoglein-3 scFv antibody binding to human DSG3",
    "UNIT_TAG": "%",
    "binding (% of control)": 107
  },
  {
    "MOLECULE": "CSc1ccc2c(c1)N(CCC1CCCCN1C)c1ccccc1S2 (centres undefined)",
    "ASSAY_SYSTEM": "anti-desmoglein-3 scFv antibody binding to human DSG3",
    "UNIT_TAG": "%",
    "binding (% of control)": 106
  },
  {
    "MOLECULE": "CC(=O)OCC(=O)C1=CCC2C3CCC4=CC(=O)C=CC4(C)C3(F)C(OC(C)=O)CC12C (centres undefined)",
    "ASSAY_SYSTEM": "anti-desmoglein-3 scFv antibody binding to human DSG3",
    "UNIT_TAG": "%",
    "binding (% of control)": 96.2
  },
  {
    "MOLECULE": "CCOC(=O)c1c(C)oc2cc(Br)c(OC(C)C(=O)OCC)cc12 (centres undefined)",
    "ASSAY_SYSTEM": "anti-desmoglein-3 scFv antibody binding to human DSG3",
    "UNIT_TAG": "%",
    "binding (% of control)": 101
  },
  {
    "MOLECULE": "C[C@H](CS)C(=O)N1CCC[C@H]1C(=O)O",
    "ASSAY_SYSTEM": "anti-desmoglein-3 scFv antibody binding to human DSG3",
    "UNIT_TAG": "%",
    "binding (% of control)": 96.7
  },
  {
    "MOLECULE": "CC(C)NCC(O)COc1ccc(CC(N)=O)cc1 (centres undefined)",
    "ASSAY_SYSTEM": "anti-desmoglein-3 scFv antibody binding to human DSG3",
    "UNIT_TAG": "%",
    "binding (% of control)": 101
  },
  {
    "MOLECULE": "CC(=O)Oc1cc(C(C)C)c(OCCN(C)C)cc1C",
    "ASSAY_SYSTEM": "anti-desmoglein-3 scFv antibody binding to human DSG3",
    "UNIT_TAG": "%",
    "binding (% of control)": 95.2
  },
  {
    "MOLECULE": "COc1ccc(/C=C2\\CCc3ccccc3C2=O)c(OC)c1OC",
    "ASSAY_SYSTEM": "anti-desmoglein-3 scFv antibody binding to human DSG3",
    "UNIT_TAG": "%",
    "binding (% of control)": 102
  },
  {
    "MOLECULE": "Cc1ccccc1NC(=O)C1c2ccccc2Oc2ccccc21",
    "ASSAY_SYSTEM": "anti-desmoglein-3 scFv antibody binding to human DSG3",
    "UNIT_TAG": "%",
    "binding (% of control)": 105
  },
  {
    "MOLECULE": "Cc1ccc(NCCC(=O)c2ccccc2)cc1Cl",
    "ASSAY_SYSTEM": "anti-desmoglein-3 scFv antibody binding to human DSG3",
    "UNIT_TAG": "%",
    "binding (% of control)": 98
  },
  {
    "MOLECULE": "COc1ccc2c(c1)c(CC(=O)O)c(C)n2C(=O)c1ccc(Cl)cc1",
    "ASSAY_SYSTEM": "anti-desmoglein-3 scFv antibody binding to human DSG3",
    "UNIT_TAG": "%",
    "binding (% of control)": 102
  },
  {
    "MOLECULE": "CCOC(=O)C1C(=O)CC(C)(O)C(C(=O)OCC)C1/C=C/c1ccccc1 (centres undefined)",
    "ASSAY_SYSTEM": "anti-desmoglein-3 scFv antibody binding to human DSG3",
    "UNIT_TAG": "%",
    "binding (% of control)": 102
  },
  {
    "MOLECULE": "O=C(NCc1ccccc1Cl)NC(=O)c1ccccc1",
    "ASSAY_SYSTEM": "anti-desmoglein-3 scFv antibody binding to human DSG3",
    "UNIT_TAG": "%",
    "binding (% of control)": 98.7
  }
]
